- SYSTEM UNDER TEST: ROS1-G2032R kinase domain (Homo sapiens, UniProt P08922, G2032R)
- Construct: TRKA-wt (1 nM, BPS Bio, 40280) kinase domains in buffer
- Sequence (P08922 1945-2222 G2032R limits assumed): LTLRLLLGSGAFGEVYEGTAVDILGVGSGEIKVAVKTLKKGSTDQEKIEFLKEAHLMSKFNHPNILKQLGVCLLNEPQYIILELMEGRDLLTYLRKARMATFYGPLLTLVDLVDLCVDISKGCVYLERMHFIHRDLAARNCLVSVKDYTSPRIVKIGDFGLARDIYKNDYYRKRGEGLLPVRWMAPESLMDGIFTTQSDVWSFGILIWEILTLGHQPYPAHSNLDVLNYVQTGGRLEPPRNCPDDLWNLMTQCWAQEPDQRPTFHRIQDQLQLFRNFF
- ASSAY INFO: Biochemical kinase assay, ROS1-G2032R
- SETTINGS: 2 mM ATP substrate solution, read-out: Ki^app ROS1-G2032R
As shown below, each of these compounds has a reported Ki value.

Illustrative cases are given below, each with its answer.
chemical_smiles=CCn1ncc2c1-c1cnc(N)c(c1)OCc1cc(F)ccc1-c1nc(C)sc1C2 result_value="< 50 nM"
chemical_smiles=Cc1nc2c(s1)Cn1ncc(C#N)c1-c1cnc(N)c(c1)O[C@H](C)c1cc(F)ccc1-2 result_value="< 50 nM"
chemical_smiles=C[C@H]1Oc2cc(cnc2N)-c2c(C#N)ncn2Cc2scnc2-c2ccc(F)cc21 result_value="< 50 nM"

// next item, Ki requested
// fetch Ki; item: CCc1nn(C)c2c1-c1cnc(N)c(c1)OCc1cc(F)ccc1-c1nn(C)cc1C2 ; system: ROS1-G2032R kinase domain (Homo sapiens, UniProt P08922, G2032R) 50 to 500 nM
